# target: Glucose transporter (Leishmania mexicana) (UniProt O61059)
# test.protocol: ST_JUDE_LEISH: Cytotoxicity at 2uM final concentration against transgenic Leishmania Mexicana promastigotes LmGT2 that are glucose transport deficient and complemented with the L. Mexicana glucose transporter 2. Activity is measured by DNA content using SYBR green in vitro
# Type: functional
Catalogue of inhibition values

molecule	target	units.label	inhibition
O=C(Cc1cccc2ccccc12)NC1CCN(c2ccnc3cc(Cl)ccc23)C1 (stereo unspecified)	Glucose transporter (Leishmania mexicana) (UniProt O61059)	%	-0.88
Cc1cccc2nc(-c3ccc(-c4ccc(CNCc5cnn(-c6ccccc6)n5)cc4)s3)[nH]c12	Glucose transporter (Leishmania mexicana) (UniProt O61059)	%	-1.83
CC(C)(C)c1ccc(CN2CCC(NC(=O)c3ccc(-c4ccccc4Cl)s3)CC2)cc1	Glucose transporter (Leishmania mexicana) (UniProt O61059)	%	3.18
O=C(Cc1ccc(-c2ccccc2)cc1)N[C@H]1CCN(Cc2ccc(OCCCN3CCCCC3)cc2)C1	Glucose transporter (Leishmania mexicana) (UniProt O61059)	%	8.12
Cc1ccc(NC(=O)c2ccc(CN3CCCN(Cc4cccc(Cl)c4)CC3)cc2)cc1C	Glucose transporter (Leishmania mexicana) (UniProt O61059)	%	2.64
COc1ccc(OCC(=O)Nc2cc(-c3nc4ccccc4[nH]3)ccc2Cl)cc1	Glucose transporter (Leishmania mexicana) (UniProt O61059)	%	3.14
C=CCOC1OC(COC(c2ccccc2)(c2ccccc2)c2ccccc2)C(OC(C)=O)C(OC(C)=O)C1NC(C)=O (stereo unspecified)	Glucose transporter (Leishmania mexicana) (UniProt O61059)	%	0.34
CC(=O)Nc1ccc(C(=O)Nc2cccc(-c3cccc(-c4nc5cc(C(F)(F)F)ccc5[nH]4)c3)c2)cn1	Glucose transporter (Leishmania mexicana) (UniProt O61059)	%	-1.64
CN1CCN(CCNc2c3ccccc3nc3c2ccc2ccccc23)CC1	Glucose transporter (Leishmania mexicana) (UniProt O61059)	%	81.5
Cc1nc2ccc3ccc(CNc4ccc(C(=O)N[C@@H](CCC(=O)O)C(=O)N[C@@H](Cc5cccs5)C(=O)O)c(F)c4)cc3c2c(=O)[nH]1	Glucose transporter (Leishmania mexicana) (UniProt O61059)	%	6.36
CC(C)CCNC(=O)[C@@H]1[C@H]2C(=O)N(C3CCCCC3)C(=O)[C@H]2[C@H]2C=C[C@@H]3C(c4ccc(C(C)(C)C)cc4)=NO[C@@H]3N21	Glucose transporter (Leishmania mexicana) (UniProt O61059)	%	7.33
CO/N=C(\C)c1ccc2c(c1)CCN(CCC1CCC(NC(=O)c3cccc(-c4noc(C)n4)c3)CC1)CC2 (stereo unspecified)	Glucose transporter (Leishmania mexicana) (UniProt O61059)	%	0.75
CN1CCN(c2cc(NC(=O)c3ccc(-c4ccc(C#N)cc4)cc3)ccc2Cl)CC1	Glucose transporter (Leishmania mexicana) (UniProt O61059)	%	0.17
COCC(C)n1c(SC(C)C(=O)Nc2cc([N+](=O)[O-])ccc2Cl)nc2ccccc2c1=O (stereo unspecified)	Glucose transporter (Leishmania mexicana) (UniProt O61059)	%	-1.16
O=C(Cn1c(CCc2cccc(F)c2F)nc(=O)c2cccnc21)N(Cc1ccc(-c2ccc(C(F)(F)F)cc2)cc1)C1CCN(C2CCSCC2)CC1	Glucose transporter (Leishmania mexicana) (UniProt O61059)	%	0.42
O=C(Cc1ccccc1)NC(CCN1CCC(O)(c2cccc(C(F)(F)F)c2)CC1)c1ccc(Cl)c(Cl)c1 (stereo unspecified)	Glucose transporter (Leishmania mexicana) (UniProt O61059)	%	0.53
c1cc(Nc2nccc(-c3cnn4ncccc34)n2)cc(-c2cnco2)c1	Glucose transporter (Leishmania mexicana) (UniProt O61059)	%	63.1
O=C(Nc1ccccc1F)NC1CCN(c2ccnc(Nc3ccc(F)cc3)n2)CC1	Glucose transporter (Leishmania mexicana) (UniProt O61059)	%	0.02
CC(C)Cc1nc(N2CCOCC2)c2nnn(Cc3ccccc3)c2n1	Glucose transporter (Leishmania mexicana) (UniProt O61059)	%	1.84
COCCN(C(=O)Cc1cccs1)C(C(=O)NCc1ccc(OC)cc1)c1ccc(C(C)C)cc1 (stereo unspecified)	Glucose transporter (Leishmania mexicana) (UniProt O61059)	%	-0.76
CCNc1cc(C)nc(Nc2ccc(NC(=O)C3CCCC3)cc2)n1	Glucose transporter (Leishmania mexicana) (UniProt O61059)	%	3.57
Oc1ccc(CCNCCCCCNCCCc2ccc(Cl)cc2)cc1O	Glucose transporter (Leishmania mexicana) (UniProt O61059)	%	2.06
CN1CCCN(Cc2cccc(-c3ccc(CNC(=O)c4cccc(Cl)c4)c(F)c3)c2)CC1	Glucose transporter (Leishmania mexicana) (UniProt O61059)	%	30.9
O=c1c2c([nH]c3cc(Cl)ccc13)CCCC2	Glucose transporter (Leishmania mexicana) (UniProt O61059)	%	3.09
Cc1ccc(CNc2cc(C(F)(F)F)nc(-c3ccc(S(C)(=O)=O)cc3)n2)cc1	Glucose transporter (Leishmania mexicana) (UniProt O61059)	%	9.59
COc1cc([N+](=O)[O-])ccc1NC(=O)Nc1ccc(OC(F)(F)F)cc1	Glucose transporter (Leishmania mexicana) (UniProt O61059)	%	-2.01
CN(CCCN(C)c1cc(NC(=O)c2ccc(F)cc2)ccn1)Cc1cccc(O)c1	Glucose transporter (Leishmania mexicana) (UniProt O61059)	%	-0.03
CC(=O)Nc1ccc(C(=O)N2CCN(c3ccnc4cc(Cl)ccc34)CC2)cc1	Glucose transporter (Leishmania mexicana) (UniProt O61059)	%	-0.23
COc1ccc(CN2CCCN(Cc3cccc(C(=O)Nc4ccc(C(C)(C)C)cc4)c3)CC2)cc1	Glucose transporter (Leishmania mexicana) (UniProt O61059)	%	3.17
COC(=O)C1=C(C)NC2=C(C(=O)CC(c3ccc(OC)c(OC)c3)C2)C1c1cccc(O)c1 (stereo unspecified)	Glucose transporter (Leishmania mexicana) (UniProt O61059)	%	3.82
COc1c(C)[nH]c(C)c(-c2ccc(Oc3cccc(C(F)(F)F)c3)cc2)c1=O	Glucose transporter (Leishmania mexicana) (UniProt O61059)	%	4.46
CC(=O)Nc1ccc2[nH]cc(C3CCN(CCC4CCN(C(=O)/C=C/c5ccc(Cl)c(Cl)c5)CC4)CC3)c2c1	Glucose transporter (Leishmania mexicana) (UniProt O61059)	%	5.15
C=CCOC(=O)O[C@@H]1[C@@H](OC(=O)OCC=C)[C@@H](OC)O[C@H](COC(c2ccccc2)(c2ccccc2)c2ccccc2)[C@H]1OC(=O)OCC=C	Glucose transporter (Leishmania mexicana) (UniProt O61059)	%	4.42
CCCc1cc(Cc2cnc(N)nc2N)cc(CCC)c1OCCCCCC(=O)OCC	Glucose transporter (Leishmania mexicana) (UniProt O61059)	%	2.52
O=C(/C=C/c1ccc(Cl)c(Cl)c1)NCCCCCN1CCC(C(=O)Nc2ccc(Cl)c(Cl)c2)CC1	Glucose transporter (Leishmania mexicana) (UniProt O61059)	%	2.34
C#CCNCc1ccc(-c2cccc(-c3nc4cccc(C)c4[nH]3)c2)cc1	Glucose transporter (Leishmania mexicana) (UniProt O61059)	%	3.18
